Tested on: Bel-7402
protocol_details: Antiproliferative activity against human Bel-7402 cells assessed as reduction in cell viability incubated for 72 hrs by MTT assay
Type: functional, cell-based
condition_notes: Bel-7402, 72 h
observable: IC50 (µM)
Respond numerically; units are µM and should not be typed.

Reference set (2 entries):
| chemical_string | IC50 [µM] |
| --- | --- |
| [O-]/[N+](=N\OCCl)N1CCOCC1 | 24.6 |
| C=C1C(=O)[C@]23[C@H](OC(=O)CCCC(=O)OCO/N=[N+](\[O-])N4CCOCC4)[C@H]1CC[C@H]2[C@@]12CO[C@@]3(O)[C@@H](O)[C@@H]1C(C)(C)CCC2=O | 1.84 |

Consider now this further molecule.
In: For the molecule shown here, "C=C1C(=O)[C@]23[C@H](OC(=O)CCCC(=O)OCO/N=[N+](\[O-])N4CCOCC4)[C@H]1CC[C@H]2[C@@]12CO[C@@]3(O)[C@@H](O)[C@@H]1C(C)(C)CC[C@@H]2O" , give the reported IC50.
Out: 2.53
